- methodSummary: Cell viability assay (CellTiter-Glo) in HEp-2 cells
- Type: cell-based
- conditionInfo: human
Recorded CC50 at 72 h by entry

{"compound": "CCC(CC)CNC(=O)Cn1cccc(NC(=O)[C@H](CC/C=C/C(=O)OC)NC(=O)c2cncn2C)c1=O [ZED-1227]", "CC50 at 72 h / µM": 78.7}
{"compound": "NCCSSCCN [Cystamine]", "CC50 at 72 h / µM": 387}

----------
- Tested on: HEp-2 cells
- methodSummary: Cell viability assay (CellTiter-Glo) in HEp-2 cells
- Format: cell-based
Measured CC50 of individual entries

{"smilesInput": "CCOC(=O)C1(CCOc2ccccc2)CCN(Cc2ccc(O)c(Cl)c2)CC1", "CC50, µM": 26.1}
{"smilesInput": "CCCCCCCC/C=C1\\C=C(C(F)(F)F)c2cc(O)c(O)cc21", "CC50, µM": 0.8}
